- Tested on: colon cancer HT-29
- ASSAY PROCEDURE: In vitro cell inhibition assay, CCK-8 method, HT-29
- Assay type: cell-based, human
- TEST CONDITIONS: Colorectal Cancer HT-29, CCK-8 method; read-out: The half maximal inhibitory concentration (IC50)

- STRUCTURE AS SMILES: "N#Cc1c(Cl)c(Cl)c(Nc2c(Cl)cc(Cl)cc2Cl)c(C#N)c1Cl"
  UNIT: "µM"
  IC50: 0.224

###

- System: non-small cell lung cancer A549 cells
- ASSAY PROCEDURE: In vitro cell inhibition assay, CCK-8 method, A549
- Format: cell-based, human
- TEST CONDITIONS: CCK-8, 1 μM, 48 h incubation
ASSAY ENDPOINT: Proliferation inhibitory effect of the compounds on A549 cells (% of Control)

- COMPOUND: "N#Cc1c(Cl)c(Cl)c(Nc2c(Cl)cc(Br)cc2Cl)c(C#N)c1Cl [Compound 6-201]"
  ASSAY RESULT: "26.90 % of Control"
- COMPOUND: "COC(=O)c1cc(Cl)c(Nc2c(Cl)c(Cl)c(C#N)c(Cl)c2C#N)c(Cl)c1 [Compound 6-100]"
  ASSAY RESULT: "52.15 % of Control"
- COMPOUND: "COC(=O)c1ccc(Nc2c(Cl)c(Cl)c(C#N)c(Cl)c2C#N)cc1 [Compound 6-25]"
  ASSAY RESULT: "17.11 % of Control"
- COMPOUND: "N#Cc1c(Cl)c(Cl)c(Nc2c(Br)cc(OC(F)(F)F)cc2Br)c(C#N)c1Cl [Compound 6-111]"
  ASSAY RESULT: "53.14 % of Control"

###

- System: lung cancer A549 cell
- ASSAY PROCEDURE: In vitro cell inhibition assay (MTT method), A549
- Format: cell-based, human
- TEST CONDITIONS: 0.01 μM, 48 h incubation
ASSAY ENDPOINT: Proliferation inhibitory effect of the compounds on A549 cell (% of Control)

- STRUCTURE AS SMILES: "Cc1c(Cl)c([N+](=O)[O-])cc([N+](=O)[O-])c1Nc1c(Cl)cc(C(F)(F)F)cc1Cl"
  ASSAY RESULT: "13.7 % of Control"
- STRUCTURE AS SMILES: "N#Cc1cc(Cl)c(Nc2c(Cl)c(Cl)c(C#N)c(Cl)c2C#N)c(Cl)c1"
  ASSAY RESULT: "−2.5 % of Control"
- STRUCTURE AS SMILES: "N#Cc1c(Cl)c(Cl)c(Nc2cc(C(F)(F)F)ccc2F)c(C#N)c1Cl"
  ASSAY RESULT: "0.5 % of Control"
- STRUCTURE AS SMILES: "N#Cc1c(Cl)c(Cl)c(Nc2c(Cl)cc([N+](=O)[O-])cc2Cl)c(C#N)c1Cl"
  ASSAY RESULT: "0 % of Control"
- STRUCTURE AS SMILES: "N#Cc1c(Cl)c(Cl)c(Nc2ccc(Cl)cc2Cl)c(C#N)c1Cl"
  ASSAY RESULT: "18.3 % of Control"
- STRUCTURE AS SMILES: "N#Cc1ccc(Nc2c(Cl)c(Cl)c(C#N)c(Cl)c2C#N)cc1"
  ASSAY RESULT: "−0.8 % of Control"
- STRUCTURE AS SMILES: "Cc1c(Cl)c([N+](=O)[O-])cc([N+](=O)[O-])c1Nc1c(F)cc(Cl)cc1F"
  ASSAY RESULT: "−2.2 % of Control"
- STRUCTURE AS SMILES: "N#Cc1c(Cl)c(Cl)c(Nc2c(Cl)cc([N+](=O)[O-])cc2Br)c(C#N)c1Cl"
  ASSAY RESULT: "9.2 % of Control"
- STRUCTURE AS SMILES: "Cc1cc([N+](=O)[O-])cc([N+](=O)[O-])c1Nc1c(Cl)cc(Cl)cc1C#N"
  ASSAY RESULT: "−1.5 % of Control"
- STRUCTURE AS SMILES: "Cc1c(Cl)c([N+](=O)[O-])cc([N+](=O)[O-])c1Nc1c(Cl)cc(Cl)cc1C#N"
  ASSAY RESULT: "0.8 % of Control"
- STRUCTURE AS SMILES: "Cc1cc([N+](=O)[O-])cc([N+](=O)[O-])c1Nc1c(Cl)cc(C#N)cc1Cl"
  ASSAY RESULT: "2.4 % of Control"

###

Measured Proliferation inhibitory effect of the compounds on HL-60 cells (% of Control) values are reported for all entries that follow.
- Tested on: leukemia HL-60 cells
- ASSAY PROCEDURE: In vitro cell inhibition assay, CCK-8 method, HL-60
- Type: cell-based, human
- TEST CONDITIONS: HL-60 cells, CCK-8 method, concentration 1 μM
ASSAY ENDPOINT: Proliferation inhibitory effect of the compounds on HL-60 cells (% of Control)

- STRUCTURE AS SMILES: "N#Cc1c(Cl)c(Cl)c(Nc2ccc(C(F)(F)F)cc2)c(C#N)c1Cl"
  ASSAY RESULT: "48.39 % of Control"
- STRUCTURE AS SMILES: "N#Cc1c(Cl)c(Cl)c(Nc2ccc(C(F)(F)F)cc2Cl)c(C#N)c1Cl"
  ASSAY RESULT: "41.47 % of Control"
- STRUCTURE AS SMILES: "N#Cc1c(Cl)c(Cl)c(Nc2ccc(Cl)c(Cl)c2)c(C#N)c1Cl"
  ASSAY RESULT: "38.45 % of Control"
- STRUCTURE AS SMILES: "N#Cc1c(Cl)c(Cl)c(Nc2ccc(Br)cc2Cl)c(C#N)c1Cl"
  ASSAY RESULT: "39.89 % of Control"
- STRUCTURE AS SMILES: "N#Cc1c(Cl)c(Cl)c(Nc2c(Cl)cc(C(F)(F)F)cc2Cl)c(C#N)c1Cl"
  ASSAY RESULT: "94.76 % of Control"
- STRUCTURE AS SMILES: "N#Cc1c(Cl)c(Cl)c(Nc2c(Cl)cc(Cl)cc2Cl)c(C#N)c1Cl"
  ASSAY RESULT: "82.05 % of Control"
- STRUCTURE AS SMILES: "N#Cc1c(Cl)c(Cl)c(Nc2c(Cl)cc(Br)cc2Cl)c(C#N)c1Cl"
  ASSAY RESULT: "75.70 % of Control"
- STRUCTURE AS SMILES: "COC(=O)c1cc(Cl)c(Nc2c(Cl)c(Cl)c(C#N)c(Cl)c2C#N)c(Cl)c1"
  ASSAY RESULT: "39.47 % of Control"
